Origin of the recorded values: ChEMBL document CHEMBL1914318

- Method Notes: Growth inhibition of porcine primary hepatocytes after 72 hrs by SRB assay
- Format: cell-based, Sus scrofa, Hepatocyte
- Details: pig

{"Smiles": "COC(=O)c1sc2cc(C#Cc3ccc(F)cc3)cnc2c1N", "Value Qualifier": ">", "GI50 at 72 h, µM": 125}
{"Smiles": "COC(=O)c1sc2cc(-c3ccc(OC)cc3)cnc2c1N", "Value Qualifier": ">", "GI50 at 72 h, µM": 125}
{"Smiles": "COC(=O)c1sc2cc(C#Cc3cccc(OC)c3)cnc2c1N", "Value Qualifier": ">", "GI50 at 72 h, µM": 125}
{"Smiles": "COC(=O)c1sc2cc(-c3ccc(C#N)cc3)cnc2c1N", "Value Qualifier": "=", "GI50 at 72 h, µM": 96.7}
{"Smiles": "COC(=O)c1sc2cc(-c3cnc(OC)nc3OC)cnc2c1N", "Value Qualifier": "=", "GI50 at 72 h, µM": 4.4}
{"Smiles": "COC(=O)c1sc2cc(C#Cc3ccc(N)cc3)cnc2c1N", "Value Qualifier": ">", "GI50 at 72 h, µM": 125}
{"Smiles": "COC(=O)c1sc2cc(-c3cnn(C)c3)cnc2c1N", "Value Qualifier": ">", "GI50 at 72 h, µM": 125}
{"Smiles": "COC(=O)c1sc2cc(-c3cc(OC)cc(OC)c3)cnc2c1N", "Value Qualifier": "=", "GI50 at 72 h, µM": 25}
{"Smiles": "COC(=O)c1sc2cc(-c3ccc4ncccc4c3)cnc2c1N", "Value Qualifier": "=", "GI50 at 72 h, µM": 14.1}
{"Smiles": "COC(=O)c1sc2cc(-c3ccc4ccccc4c3)cnc2c1N", "Value Qualifier": "=", "GI50 at 72 h, µM": 102}
{"Smiles": "COC(=O)c1sc2cc(C#Cc3ccccc3N)cnc2c1N", "Value Qualifier": ">", "GI50 at 72 h, µM": 125}
{"Smiles": "COC(=O)c1sc2cc(-c3ccc(-c4cccs4)s3)cnc2c1N", "Value Qualifier": "=", "GI50 at 72 h, µM": 106}
{"Smiles": "COC(=O)c1sc2cc(-c3ccoc3)cnc2c1N", "Value Qualifier": ">", "GI50 at 72 h, µM": 125}
{"Smiles": "COC(=O)c1sc2cc(C#Cc3ccc(N(C)C)cc3)cnc2c1N", "Value Qualifier": ">", "GI50 at 72 h, µM": 125}
{"Smiles": "COC(=O)c1sc2cc(-c3ccc(OC)nc3)cnc2c1N", "Value Qualifier": ">", "GI50 at 72 h, µM": 125}

----------
- Method Notes: Growth inhibition of porcine primary hepatocytes after 72 hrs by SRB assay
- Assay type: cell-based, Sus scrofa, Hepatocyte
- Details: pig

{"Smiles": "COC(=O)c1sc2cc(-c3ccccc3N)cnc2c1N", "GI50 at 72 h": "> 125 µM"}
{"Smiles": "COC(=O)c1sc2cc(-c3cccnc3)cnc2c1N", "GI50 at 72 h": "> 125 µM"}
{"Smiles": "COC(=O)c1sc2cc(-c3ccc4c(ccn4C)c3)cnc2c1N", "GI50 at 72 h": "106 µM"}
{"Smiles": "Cc1c2ccncc2c(C)c2c1[nH]c1ccccc12", "GI50 at 72 h": "3.3 µM"}
{"Smiles": "COC(=O)c1sc2cc(C#Cc3ccccc3F)cnc2c1N", "GI50 at 72 h": "> 125 µM"}
{"Smiles": "COC(=O)c1sc2cc(-c3ccc(C(C)=O)cc3)cnc2c1N", "GI50 at 72 h": "> 125 µM"}
